hCA I (Homo sapiens): recorded Ki for assorted compounds
Sequence (P00915 whole entry): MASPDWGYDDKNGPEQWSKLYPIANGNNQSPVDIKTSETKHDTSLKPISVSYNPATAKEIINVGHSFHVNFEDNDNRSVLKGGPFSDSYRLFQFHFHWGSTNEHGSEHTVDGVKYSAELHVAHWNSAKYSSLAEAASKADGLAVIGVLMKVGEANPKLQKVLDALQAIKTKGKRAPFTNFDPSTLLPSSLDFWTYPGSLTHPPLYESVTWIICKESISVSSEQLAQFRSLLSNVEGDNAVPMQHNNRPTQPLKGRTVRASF
Give the quantity in µM, number only.

compound | observable | outputUnit | reportedResult
CCc1ccc(CCOc2ccc(CC3SC(=O)NC3=O)cc2)nc1 (stereo not drawn) | Ki | µM | 39.6
CN(CCOc1ccc(CC2SC(=O)NC2=O)cc1)c1ccccn1 (stereo not drawn) | Ki | µM | 16.3

Please look at the following compound next.
Input: # query: Ki | item Cc1c(C)c2c(c(C)c1O)CCC(C)(COc1ccc(CC3SC(=O)NC3=O)cc1)O2 (racemic) | system: hCA I (Homo sapiens)
Output: 57.2

* * *

hCA XII (Homo sapiens, UniProt O43570): recorded Ki for assorted compounds
Sequence (O43570 25-354): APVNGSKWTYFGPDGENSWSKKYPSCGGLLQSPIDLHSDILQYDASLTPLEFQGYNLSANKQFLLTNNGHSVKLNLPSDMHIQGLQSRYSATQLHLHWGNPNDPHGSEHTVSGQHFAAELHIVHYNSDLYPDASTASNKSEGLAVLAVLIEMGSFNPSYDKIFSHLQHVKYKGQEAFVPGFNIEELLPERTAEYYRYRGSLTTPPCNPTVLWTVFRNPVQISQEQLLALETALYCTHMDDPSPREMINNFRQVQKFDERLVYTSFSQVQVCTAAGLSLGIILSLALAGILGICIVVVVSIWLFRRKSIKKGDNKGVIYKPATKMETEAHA
Lab note: write values as number then unit, every time.

compound | assayedTarget | reportedResult
CN(CCOc1ccc(CC2SC(=O)NC2=O)cc1)c1ccccn1 (centres unmarked) [Compound 12] | hCA XII (Homo sapiens, UniProt O43570) | 3700 nM

Please look at the following compound next.
Input: # query: Ki | item Cc1c(C)c2c(c(C)c1O)CCC(C)(COc1ccc(CC3SC(=O)NC3=O)cc1)O2 (racemic) [Compound 11] | system: hCA XII (Homo sapiens, UniProt O43570)
Output: 920 nM

* * *

The entries below are paired with their reported pKi.
target: UniProt P43166
Sequence (P43166 whole entry): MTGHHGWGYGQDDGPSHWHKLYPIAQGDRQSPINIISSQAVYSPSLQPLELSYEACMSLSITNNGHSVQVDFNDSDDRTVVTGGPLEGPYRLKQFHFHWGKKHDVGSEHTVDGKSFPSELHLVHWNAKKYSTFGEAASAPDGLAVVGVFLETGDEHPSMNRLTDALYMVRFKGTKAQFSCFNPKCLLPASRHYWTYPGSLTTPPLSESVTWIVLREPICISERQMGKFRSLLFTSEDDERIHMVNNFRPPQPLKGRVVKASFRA
Scale: pKi equals -log10([C]), with [C] in mol/L.

compound | pKi
CN(CCOc1ccc(CC2SC(=O)NC2=O)cc1)c1ccccn1 (centres unmarked) | 5.21

Please look at the following compound next.
Input: # query: pKi | item CCc1ccc(CCOc2ccc(CC3SC(=O)NC3=O)cc2)nc1 (centres unmarked) | system: UniProt P43166
Output: 5.31

* * *

molecular target: hCA XIII (Homo sapiens); construct: made in house; assay: Stopped flow CO2 hydrase assay; format: biochemical; details: mean from three assays, errors ±10%
Sequence (Q8N1Q1 whole entry): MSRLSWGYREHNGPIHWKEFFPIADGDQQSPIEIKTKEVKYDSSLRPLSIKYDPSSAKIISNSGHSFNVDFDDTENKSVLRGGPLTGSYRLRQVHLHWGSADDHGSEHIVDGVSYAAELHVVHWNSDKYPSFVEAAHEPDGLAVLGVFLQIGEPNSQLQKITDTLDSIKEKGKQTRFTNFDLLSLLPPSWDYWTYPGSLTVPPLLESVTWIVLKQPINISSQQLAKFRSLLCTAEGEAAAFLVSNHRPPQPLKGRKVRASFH
The entries below are paired with their reported Ki.
Give the quantity in µM, number only.

Completed entries (count: 2):
compound | outputUnit | Ki
CN(CCOc1ccc(CC2SC(=O)NC2=O)cc1)c1ccccn1 (stereo not drawn) | µM | 7.4
CCc1ccc(CCOc2ccc(CC3SC(=O)NC3=O)cc2)nc1 (stereo not drawn) | µM | 21.5

Please look at the following compound next.
Input: I have this compound here, Cc1c(C)c2c(c(C)c1O)CCC(C)(COc1ccc(CC3SC(=O)NC3=O)cc1)O2 (racemic) , and I need its recorded Ki.
Output: 32.3

* * *

hCA VB (Homo sapiens, UniProt Q9Y2D0): recorded Ki for assorted compounds
Sequence (Q9Y2D0 34-317): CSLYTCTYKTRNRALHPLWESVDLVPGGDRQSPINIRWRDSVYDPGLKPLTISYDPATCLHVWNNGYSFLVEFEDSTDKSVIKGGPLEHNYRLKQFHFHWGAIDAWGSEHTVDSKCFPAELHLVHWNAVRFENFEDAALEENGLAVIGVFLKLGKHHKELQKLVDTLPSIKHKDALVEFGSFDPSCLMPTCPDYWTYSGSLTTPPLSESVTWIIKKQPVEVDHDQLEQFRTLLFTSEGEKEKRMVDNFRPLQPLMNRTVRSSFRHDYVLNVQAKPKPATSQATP
Give the quantity in µM, number only.

Completed entries (count: 2):
compound | outputUnit | reportedResult
CCc1ccc(CCOc2ccc(CC3SC(=O)NC3=O)cc2)nc1 (stereo not drawn) | µM | 36.2
CN(CCOc1ccc(CC2SC(=O)NC2=O)cc1)c1ccccn1 (stereo not drawn) | µM | 40.9

Input: # query: Ki | item Cc1c(C)c2c(c(C)c1O)CCC(C)(COc1ccc(CC3SC(=O)NC3=O)cc1)O2 (racemic) | system: hCA VB (Homo sapiens, UniProt Q9Y2D0)
Output: 28.9

* * *

hCA II (Homo sapiens): recorded pKi for assorted molecules
Scale: pKi equals -log10([C]), with [C] in mol/L.

Completed entries (count: 2):
molecule | reportedResult
CCc1ccc(CCOc2ccc(CC3SC(=O)NC3=O)cc2)nc1 (stereo not drawn) | 5.15
Cc1c(C)c2c(c(C)c1O)CCC(C)(COc1ccc(CC3SC(=O)NC3=O)cc1)O2 (racemic) | 5.89

Please look at the following molecule next.
Input: # query: pKi | item CN(CCOc1ccc(CC2SC(=O)NC2=O)cc1)c1ccccn1 (stereo not drawn) | system: hCA II (Homo sapiens)
Output: 6.12
